- Tested on: CCD-19Lu
- TEST METHOD NOTES: In vitro cytotoxicity, MTT assay
- Assay type: cell-based
- CONDITION: 72 h incubation
pIC50: −log10 of the molar value.
QUANTITY: pIC50

{"COMPOUND": "C1=Cc2nc1c(-c1ccccc1)c1ccc([n-]1)c(-c1ccccc1)c1nc(c(-c3ccccc3)c3ccc([n-]3)c2-c2ccccc2)C=C1.[Au+3].[Cl-] [Au1a, [Au(TPP)]Cl, reference compound]", "QUANTITY": "pIC50", "NUMERIC READOUT": 6.64}
{"COMPOUND": "COC(=O)c1ccc(-c2c3nc(c(-c4ccccc4)c4ccc([n-]4)c(-c4ccccc4)c4nc(c(-c5ccccc5)c5ccc2[n-]5)C=C4)C=C3)cc1.[Au+3].[Cl-]", "QUANTITY": "pIC50", "NUMERIC READOUT": 6.14}
{"COMPOUND": "N.N.[Cl][Pt][Cl] [Cisplatin, cisplatin, reference compound]", "QUANTITY": "pIC50", "NUMERIC READOUT": 4.31}

* * *

Parameter pIC50: see the listing below.
- Test system: HCT116
- TEST METHOD NOTES: In vitro cytotoxicity, MTT assay
- Format: cell-based, human
- CONDITION: HCT116; MTT assay, 72 h incubation
pIC50: −log10 of the molar value.
QUANTITY: pIC50

{"COMPOUND": "COC(=O)c1ccc(-c2c3nc(c(-c4ccccc4)c4ccc([n-]4)c(-c4ccccc4)c4nc(c(-c5ccccc5)c5ccc2[n-]5)C=C4)C=C3)cc1.[Au+3].[Cl-]", "NUMERIC READOUT": 7.05}
{"COMPOUND": "C1=Cc2nc1c(-c1ccccc1)c1ccc([n-]1)c(-c1ccccc1)c1nc(c(-c3ccccc3)c3ccc([n-]3)c2-c2ccccc2)C=C1.[Au+3].[Cl-] [Au1a, [Au(TPP)]Cl, reference compound]", "NUMERIC READOUT": 7.05}
{"COMPOUND": "N.N.[Cl][Pt][Cl] [Cisplatin, cisplatin, reference compound]", "NUMERIC READOUT": 4.80}

Value source: patent US11135310B2
